Each recorded value in this set is attributed to paper PMC5926067.

# TARGET_OF_ASSAY: gelatinase B (MMP-9) (Homo sapiens)
# Sequence (P14780 107-707): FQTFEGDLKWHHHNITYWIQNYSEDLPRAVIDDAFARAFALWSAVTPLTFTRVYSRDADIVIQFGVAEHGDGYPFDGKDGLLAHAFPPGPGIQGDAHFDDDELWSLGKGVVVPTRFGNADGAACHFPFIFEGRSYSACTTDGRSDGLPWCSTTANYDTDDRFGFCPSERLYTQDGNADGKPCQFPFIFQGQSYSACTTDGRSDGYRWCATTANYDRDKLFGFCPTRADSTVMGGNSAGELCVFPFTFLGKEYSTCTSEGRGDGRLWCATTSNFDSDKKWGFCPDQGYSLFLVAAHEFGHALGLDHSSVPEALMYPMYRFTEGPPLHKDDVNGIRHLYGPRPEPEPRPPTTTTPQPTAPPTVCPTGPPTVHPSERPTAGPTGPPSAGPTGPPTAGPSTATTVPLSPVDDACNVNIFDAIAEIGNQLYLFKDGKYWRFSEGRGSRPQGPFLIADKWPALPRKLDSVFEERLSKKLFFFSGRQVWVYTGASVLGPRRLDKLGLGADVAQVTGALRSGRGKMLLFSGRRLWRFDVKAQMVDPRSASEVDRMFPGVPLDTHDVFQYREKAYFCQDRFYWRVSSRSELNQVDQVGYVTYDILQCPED
# ASSAY_PROTOCOL: fluorescence-labeled gelatin degradation assay, partially purified enzyme
RECORDED_ENDPOINT: IC50
Write the quantity with the unit trailing the number.

Req: Consider the compound CON1C(=O)[C@@H](NC(=O)[C@@H](CC(=O)NO)CC(C)C)Cc2ccccc21 [OPB-3206] and give its measured IC50.
Resp: 500 nM
